Every entry's value here was drawn from ChEMBL document CHEMBL3813628.

Biological target: Nuclear factor erythroid 2-related factor 2 (Homo sapiens)
Experiment: Activation of Nrf2 in human HepG2 cells at 40 uM incubated for 12 hrs by ARE-driven luciferase reporter gene assay relative to control
Format: cell-based
Overview of recorded fold change (FC) for various compounds
measured_parameter: fold change (FC)

>>> df
                                    compound  result
 0   Cc1nc2cc(-c3noc(/C=C/c4ccccc4)n3)ccc2o1    6.78
 1  CC(C)n1c(=O)[nH]c2cc(-c3noc(C4CCCCC4)n3)ccc21    7.33
 2               CC(C)(C)c1cc(O)ccc1O [E319]    2.14
 3              CN(C)C=O [DIMETHYLFORMAMIDE]    2.97
 4  CCCn1c(=O)[nH]c2cc(-c3noc(C4CCCC4)n3)ccc21    7.03
 5       Cc1nc2cc(-c3noc(-c4cnccn4)n3)ccc2o1    15.5
 6  Clc1cc(-c2nc(-c3ccc4oc(-c5ccccc5)nc4c3)no2)ccn1    6.38
 7  Cn1cnc2ccc(-c3noc(-c4ccc5cc[nH]c5c4)n3)cc21    12.4
 8  c1ccc(-c2nc3cc(-c4noc(-c5ccc6[nH]cnc6c5)n4)ccc3o2)cc1    5.43
 9  CN(C)c1cccc(-c2nc(-c3ccc4c(c3)[nH]c(=O)n4C3CCCC3)no2)c1    8.89
10  Cc1nc2cc(-c3noc(-c4ccc5[nH]cnc5c4)n3)ccc2o1    8.94

###

Target: Nuclear factor erythroid 2-related factor 2 (Homo sapiens)
Assay: Activation of Nrf2 in human HepG2 cells at 2 uM incubated for 12 hrs by ARE-driven luciferase reporter gene assay relative to control
Assay type: cell-based
Under this convention, true (1) denotes fold change (FC) strictly below 4 and false (0) denotes fold change (FC) at or above 4.

>>> print(df.to_string())
                            molecule_smiles                        measurement_target      group
0  CN(C)c1cccc(-c2nc(-c3ccc4c(c3)[nH]c(=O)n4C3CCCC3)no2)c1  Nuclear factor erythroid 2-related factor 2 (Homo sapiens)   true (1)
1  Clc1cc(-c2nc(-c3ccc4oc(-c5ccccc5)nc4c3)no2)ccn1  Nuclear factor erythroid 2-related factor 2 (Homo sapiens)  false (0)
2  CCCn1c(=O)[nH]c2cc(-c3noc(C4CCCC4)n3)ccc21  Nuclear factor erythroid 2-related factor 2 (Homo sapiens)  false (0)
3                      CC(C)(C)c1cc(O)ccc1O  Nuclear factor erythroid 2-related factor 2 (Homo sapiens)   true (1)
4  c1ccc(-c2nc3cc(-c4noc(-c5ccc6[nH]cnc6c5)n4)ccc3o2)cc1  Nuclear factor erythroid 2-related factor 2 (Homo sapiens)   true (1)

###

Target: UniProt:Q16236
Assay: Activation of Nrf2 in human HepG2 cells at 160 uM incubated for 12 hrs by ARE-driven luciferase reporter gene assay relative to control
Type: cell-based
Overview of recorded fold change (FC) for various compounds
measured_parameter: fold change (FC)

>>> print(df.to_string())
                            molecule_smiles  number
0  Clc1cc(-c2nc(-c3ccc4oc(-c5ccccc5)nc4c3)no2)ccn1    10.5
1  c1ccc(-c2nc3cc(-c4noc(-c5ccc6[nH]cnc6c5)n4)ccc3o2)cc1    17.7
2  CN(C)c1cccc(-c2nc(-c3ccc4c(c3)[nH]c(=O)n4C3CCCC3)no2)c1    3.06
3       Cc1nc2cc(-c3noc(-c4cnccn4)n3)ccc2o1    15.3

###

Target: Nuclear factor erythroid 2-related factor 2 (Homo sapiens) (UniProt Q16236)
Assay: Activation of Nrf2 in human HepG2 cells at 20 uM incubated for 12 hrs by ARE-driven luciferase reporter gene assay relative to control
Format: cell-based
Label scheme for fold change (FC): lower than 5 is -1, 5 and above is 1.

In [3]: df
Out[3]:
                                    compound  group
 0  CCOc1ccc(-c2nc(-c3ccc4[nH]c(=O)n(C5CCCC5)c4c3)no2)cc1OCC     -1
 1   CCc1ccc(-c2nc(-c3ccc4oc(C)nc4c3)no2)cc1     -1
 2              CN(C)C=O [DIMETHYLFORMAMIDE]     -1
 3       Cc1nc2cc(-c3noc(-c4cccnc4)n3)ccc2o1      1
 4   Cc1nc2cc(-c3noc(/C=C/c4ccccc4)n3)ccc2o1      1
 5       Cc1nc2cc(-c3noc(-c4cnccn4)n3)ccc2o1      1
 6    Cc1nc2cc(-c3noc(Cc4ccc(F)cc4)n3)ccc2o1     -1
 7  Clc1cc(-c2nc(-c3ccc4oc(-c5ccccc5)nc4c3)no2)ccn1      1
 8  CC(C)n1c(=O)[nH]c2cc(-c3noc(C4CCCCC4)n3)ccc21      1
 9  CCc1cc(O)nc(SCc2nc(-c3ccc(Cl)c(F)c3)no2)n1     -1
10  Cn1cnc2ccc(-c3noc(-c4ccc5cc[nH]c5c4)n3)cc21      1

###

Overview of recorded fold change (FC) for various molecules
Molecular target: UniProtKB Q16236
Sequence (whole entry): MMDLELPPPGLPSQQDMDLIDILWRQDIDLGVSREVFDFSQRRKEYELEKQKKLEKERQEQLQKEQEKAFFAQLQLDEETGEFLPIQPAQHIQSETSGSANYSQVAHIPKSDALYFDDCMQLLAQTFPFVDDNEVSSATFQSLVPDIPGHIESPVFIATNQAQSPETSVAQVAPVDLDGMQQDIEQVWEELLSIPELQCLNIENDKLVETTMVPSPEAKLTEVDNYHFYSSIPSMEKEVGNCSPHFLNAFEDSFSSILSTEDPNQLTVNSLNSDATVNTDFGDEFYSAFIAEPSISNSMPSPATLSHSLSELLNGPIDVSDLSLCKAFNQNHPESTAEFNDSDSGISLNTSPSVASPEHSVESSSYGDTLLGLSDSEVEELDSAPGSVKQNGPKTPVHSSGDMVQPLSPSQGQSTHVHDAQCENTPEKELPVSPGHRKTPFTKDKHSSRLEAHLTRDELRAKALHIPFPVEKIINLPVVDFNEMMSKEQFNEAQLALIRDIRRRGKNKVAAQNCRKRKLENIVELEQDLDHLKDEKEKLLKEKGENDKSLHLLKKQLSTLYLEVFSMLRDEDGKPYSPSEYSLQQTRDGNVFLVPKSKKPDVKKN
Assay: Activation of Nrf2 in human HepG2 cells at 5 uM incubated for 12 hrs by ARE-driven luciferase reporter gene assay relative to control
Type: cell-based
measured_parameter: fold change (FC)

In [3]: df
Out[3]:
                            molecule_smiles  number
0  Cn1cnc2ccc(-c3noc(-c4ccc5cc[nH]c5c4)n3)cc21     4.1
1  CCCn1c(=O)[nH]c2cc(-c3noc(C4CCCC4)n3)ccc21     3.2
2  Cc1nc2cc(-c3noc(-c4cccc(C#N)c4)n3)ccc2o1    4.76
3  COc1ccc(Cl)cc1-c1nc(-c2ccc3oc(C)nc3c2)no1    3.62
4    Cc1nc2cc(-c3noc(Cc4ccc(F)cc4)n3)ccc2o1    1.73
5  Cc1nc2cc(-c3noc(-c4ccc5[nH]cnc5c4)n3)ccc2o1    4.38
6  Clc1cc(-c2nc(-c3ccc4oc(-c5ccccc5)nc4c3)no2)ccn1    4.64

###

Target: Nuclear factor erythroid 2-related factor 2 (Homo sapiens) (UniProt Q16236)
Assay: Activation of Nrf2 in human HepG2 cells at 80 uM incubated for 12 hrs by ARE-driven luciferase reporter gene assay relative to control
Assay type: cell-based
Under this convention, rule met denotes fold change (FC) strictly below 5 and rule not met denotes fold change (FC) at or above 5.

>>> print(df.to_string())
                            molecule_smiles                        measurement_target         group
0  CC(C)n1c(=O)[nH]c2cc(-c3noc(C4CCCCC4)n3)ccc21  Nuclear factor erythroid 2-related factor 2 (Homo sapiens) (UniProt Q16236)  rule not met
1  c1ccc(-c2nc3cc(-c4noc(-c5ccc6[nH]cnc6c5)n4)ccc3o2)cc1  Nuclear factor erythroid 2-related factor 2 (Homo sapiens) (UniProt Q16236)  rule not met
2                      CC(C)(C)c1cc(O)ccc1O  Nuclear factor erythroid 2-related factor 2 (Homo sapiens) (UniProt Q16236)  rule not met
3  CN(C)c1cccc(-c2nc(-c3ccc4c(c3)[nH]c(=O)n4C3CCCC3)no2)c1  Nuclear factor erythroid 2-related factor 2 (Homo sapiens) (UniProt Q16236)      rule met
4  Clc1cc(-c2nc(-c3ccc4oc(-c5ccccc5)nc4c3)no2)ccn1  Nuclear factor erythroid 2-related factor 2 (Homo sapiens) (UniProt Q16236)  rule not met
